Molecular target: human mTOR (Homo sapiens, UniProt P42345)
Construct: purchased Invitrogen
Assay: Inhibition of mTOR (LanthaScreen TR-FRET, GFP-4E-BP1 substrate)
Type: biochemical
Conditions: purified mTor, GFP-4E-BP1 and ATP, 30 min at room temperature; read-out: pIC50 for inhibition of human mTOR in the assay of Example A (converted)
Metric: IC50

Compound: CCNC(=O)Nc1ccc(-c2nc(N3CCOCC3)c3c(n2)C(C)(C)OC3)cc1
IC50: < 31.6 nM

Compound: CNC(=O)Nc1ccc(-c2nc(N3CC4CCC(C3)O4)c3c(n2)C(C)(O)OC3)cc1 (stereo not shown)
IC50: 31.6 to 1000 nM

Compound: O=C(Nc1ccc(-c2nc(N3CCOCC3)c3c(n2)C2(CC2)OC3)cc1)NC1CC1
IC50: < 31.6 nM

Ask | Using the record for CNC(=O)Nc1ccc(-c2nc(N3CCOCC3)c3c(n2)C2(CC2)OC3)cc1 , report its IC50.
Reply | < 31.6 nM
